Data origin: paper PMC9233675

test-protocol: Cellular viability (resazurin to resorufin, 72 h)
Assay type: cell-based, human
run-conditions: human, parental HEK293 T-Rex cells, HEK293 T-Rex, after 72 hrs; Log Conc -1.38561

{"compound": "COc1ccc(C=Cc2ccncc2)c(OC)c1 [Compound 3]", "viability at 72 h, 0.0412 μM, %": 90.3}
{"compound": "COc1cc(/C=C/c2ccc(OC)cc2OC)cc(OC)c1 [Compound 1, reference compound]", "viability at 72 h, 0.0412 μM, %": 97.1}
{"compound": "COc1ccc(/C=C/c2ccncn2)c(OC)c1 [Compound 2]", "viability at 72 h, 0.0412 μM, %": 92}
